Test name: AUC (0 to infinity) in Sprague-Dawley rat at 46.7 mg/kg, po
Assay type: ADME, organism-based
Parameters: time infinity, dose 46.7 mg/kg, route oral
Recorded conditions: plasma
Value type: AUC(0-inf)
Note: a bare number is incomplete; add the unit.

Note AUC(0-inf) for the compound shown: Cc1cc(Nc2ccc(S(F)(F)(F)(F)F)cc2)n2nc(C(C)(F)F)nc2n1
322 µM·h

====

Tested on: UniProtKB Q54A96
Sequence (Q54A96 whole entry): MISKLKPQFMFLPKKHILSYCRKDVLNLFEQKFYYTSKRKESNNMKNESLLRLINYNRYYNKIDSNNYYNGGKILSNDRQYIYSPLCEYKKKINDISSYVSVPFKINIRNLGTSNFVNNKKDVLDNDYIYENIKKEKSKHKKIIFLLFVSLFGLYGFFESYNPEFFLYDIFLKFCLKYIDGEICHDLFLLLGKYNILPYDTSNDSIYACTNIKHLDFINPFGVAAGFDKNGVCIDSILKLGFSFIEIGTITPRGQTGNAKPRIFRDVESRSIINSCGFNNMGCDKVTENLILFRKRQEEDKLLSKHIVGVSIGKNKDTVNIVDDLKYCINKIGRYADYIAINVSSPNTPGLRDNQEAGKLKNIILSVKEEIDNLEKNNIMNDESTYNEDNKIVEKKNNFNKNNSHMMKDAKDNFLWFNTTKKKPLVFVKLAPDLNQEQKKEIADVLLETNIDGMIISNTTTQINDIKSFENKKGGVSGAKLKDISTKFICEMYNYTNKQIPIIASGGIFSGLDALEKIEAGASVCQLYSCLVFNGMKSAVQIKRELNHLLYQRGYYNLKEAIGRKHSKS
pIC50: recorded values
The read-out pIC50 is expressed as -log10 of concentration in moles per litre.

Study these solved cases before continuing.
>>> print(df.to_string())
                                   compound         tested_on  value_type  numeric_result
0  Cc1cc(Nc2ccc(C(F)(F)F)cc2)n2nc(C(C)(C)C)nc2n1  UniProtKB Q54A96       pIC50            6.34
1      Cc1cc(Nc2ccc(Cl)cc2)n2nc(C(C)C)nc2n1  UniProtKB Q54A96       pIC50            6.48
2      Cc1cc(Nc2cccc(Cl)c2)n2nc(C3CC3)nc2n1  UniProtKB Q54A96       pIC50            6.09
3  CCC(F)(F)c1nc2nc(C)cc(Nc3ccc(C(F)(F)F)cc3)n2n1  UniProtKB Q54A96       pIC50            7.72
4  CCC(F)(F)c1nc2nc(C)cc(Nc3ccc(Cl)cc3)n2n1  UniProtKB Q54A96       pIC50            7.47

State the measured pIC50 (UniProtKB Q54A96) of Cc1cc(Nc2ccc(S(F)(F)(F)(F)F)cc2)n2nc(CC3CC3)nc2n1
5.24

Under UniProtKB Q54A96: report pIC50 of CSc1nc2nc(C)cc(Nc3ccc(S(F)(F)(F)(F)F)cc3)n2n1 .
7.52

Give reported pIC50 for CSc1nc2nc(C)cc(Nc3cccc(Cl)c3)n2n1 (UniProtKB Q54A96)
7.59

Print UniProtKB Q54A96 pIC50 for COc1nc2nc(C)cc(Nc3ccc(Cl)cc3)n2n1 .
6.34

Would you please give the reported pIC50 of Cc1cc(Nc2ccc(Cl)cc2)n2nc(C3CC3)nc2n1 with UniProtKB Q54A96?
6.06

For UniProtKB Q54A96, give pIC50 of the listed compound: CCC(C)c1nc2nc(C)cc(Nc3ccc(S(F)(F)(F)(F)F)cc3)n2n1 (centres undefined)
6.48

# lookup: UniProtKB Q54A96 pIC50, key = CSc1nc2nc(C)cc(Nc3ccc(C(F)(F)F)cc3)n2n1
7.44

Look up and report measured pIC50 (UniProtKB Q54A96) for the following compound: COCc1nc2nc(C)cc(Nc3cccc(Cl)c3)n2n1
5.77

State pIC50 on UniProtKB Q54A96. Entry: Cc1cc(Nc2ccc(S(F)(F)(F)(F)F)cc2)n2nc(C(C)(C)C)nc2n1
6.26

For UniProtKB Q54A96, give the measured pIC50 of the entry CCOc1nc2nc(C)cc(Nc3cccc(Cl)c3)n2n1
6.40

# return pIC50 for Cc1cc(Nc2cccc(Cl)c2)n2nc(C(C)(F)F)nc2n1 , test system: UniProtKB Q54A96
7.27

Print UniProtKB Q54A96 pIC50 for Cc1cc(Nc2ccc(S(F)(F)(F)(F)F)cc2)n2nc(C(C)C)nc2n1 .
7.00

Please indicate recorded pIC50 of CCOc1nc2nc(C)cc(Nc3ccc(S(F)(F)(F)(F)F)cc3)n2n1 measured with UniProtKB Q54A96.
7.24

Enter recorded pIC50 with UniProtKB Q54A96 for Cc1cc(Nc2ccc(Cl)cc2)n2nc(C(C)(F)F)nc2n1 here.
7.42
